- Experimental System: HDAC6 (Homo sapiens, UniProt Q9UBN7)
- Method Notes: HDAC inhibitory activity, fluorescence-coupled acetylated peptide substrate assay
- Type: biochemical
- Assay Context: ratio of IC50 HDAC1 to HDAC6
Measured Parameter: Selection Ratio HDAC1/6

>>> reported("Cc1nc(N(C)c2ccc(OCC(=O)NO)cc2)c2ccccc2n1")
20.0
>>> reported("CN(c1ccc(OCCCCCC(=O)NO)cc1)c1ncnc2ccccc12")
9.3
>>> reported("Cc1nc(N(C)c2ccc(OCCCCCC(=O)NO)cc2)c2ccccc2n1")
8.0

(a) CN(c1ccc(OCc2ccc(C(=O)NO)cc2)cc1)c1ncnc2ccccc12
(b) Cc1nc(N(C)c2ccc(OCc3ccc(C(=O)NO)cc3)cc2)c2ccccc2n1
(c) Cc1nc(N(C)c2ccc(Oc3ccc(C(=O)NO)cn3)cc2)c2ccccc2n1
Reorder: Selection Ratio HDAC1/6, max to min. A complete answer lists every label in the requested sequence.
c, a, b
(c: 110.0, a: 38.5, b: 6.9)

* * *

- Experimental System: HDAC6 (Homo sapiens, UniProt Q9UBN7)
- Method Notes: HDAC inhibitory activity, fluorescence-coupled acetylated peptide substrate assay
- Format: biochemical
- Assay Context: Table 3
pIC50: −log10 of the molar value.
Measured Parameter: pIC50

Worked set:
>>> reported("Cc1nc(N(C)c2ccc(OCc3ccc(C(=O)NO)cc3)cc2)c2ccccc2n1")
8.19
>>> reported("CN(c1ccc(OCCCC(=O)NO)cc1)c1ncnc2ccccc12")
7.47
>>> reported("Cc1nc(N(C)c2ccc(Oc3ccc(C(=O)NO)cc3)cc2)c2ccccc2n1")
7.14
>>> reported("Cc1nc(N(C)c2ccc(OCCCCCC(=O)NO)cc2)c2ccccc2n1")
7.47
>>> reported("Cc1nc(N(C)c2ccc(OCCCCC(=O)NO)cc2)c2ccccc2n1")
7.24

(1) CN(c1ccc(OCc2ccc(C(=O)NO)cc2)cc1)c1ncnc2ccccc12
(2) CN(c1ccc(OCCCCC(=O)NO)cc1)c1ncnc2ccccc12
From the recorded data, which exceeds the other in pIC50: 1 or 2 ? In your reply, give the label of the chosen option.
1

(I) CN(c1ccc(Oc2ccc(C(=O)NO)cn2)cc1)c1ncnc2ccccc12
(II) Cc1nc(N(C)c2ccc(Oc3ccc(C(=O)NO)cn3)cc2)c2ccccc2n1
Quick one: lower pIC50, I or II ? In your reply, give the label of the chosen option.
I

(a) Cc1nc(N(C)c2ccc(OCC(=O)NO)cc2)c2ccccc2n1
(b) CN(c1ccc(OCCCCCC(=O)NO)cc1)c1ncnc2ccccc12
From the recorded data, which exceeds the other in pIC50: a or b ? In your reply, give the label of the chosen option.
a

* * *

Items are presented alongside their recorded IC50.
- System: Human melanoma A375
- Method Notes: Cell proliferative activity (MTT / cck-8)
- Assay type: cell-based
- Assay Context: A-375, incubated for 96 hours, read-out: Half-Inhibitory Concentration IC50 Human melanoma A375

Worked set:
>>> reported("CCCN(c1ccc(OC)c(OCCCC(=O)NO)c1)c1nc(C)nc2ccccc12 [IV-2]")
"100 to 1000 nM"
>>> reported("Cc1nc(N(C)c2cccc(OCCCC(=O)NO)c2)c2ccccc2n1 [III-13]")
"100 to 1000 nM"
>>> reported("COc1ccc(N(C)c2nc(C)nc3ccccc23)cc1OCC(=O)NO [III-1]")
"10 to 100 nM"
>>> reported("Cc1nc(N(C)c2ccc(OCCCCC(=O)NO)cc2)c2ccccc2n1 [II-3]")
"> 1000 nM"
>>> reported("Cc1nc(N(C)c2cccc(OCCCCC(=O)NO)c2)c2ccccc2n1 [III-14]")
"100 to 1000 nM"
>>> reported("Cc1nc(N(C)c2ccc(OCCCC(=O)NO)cc2)c2ccccc2n1 [II-2]")
"100 to 1000 nM"

Looking up CN(c1ccc(OCCCCCC(=O)NO)cc1)c1ncnc2ccccc12 [II-15] , I found its IC50 recorded as 100 to 1000 nM

Looking up COc1ccc(N(C)c2nc(C)nc3ccccc23)cc1OCCCC(=O)NO [III-2] , I found its IC50 recorded as 10 to 100 nM

Looking up Cc1nc(N(C)c2cccc(OCCCCCC(=O)NO)c2)c2ccccc2n1 [III-15] , I found its IC50 recorded as > 1000 nM

Looking up Cc1nc(Nc2ccc(OCCC(=O)NO)cc2)c2ccccc2n1 [II-24] , I found its IC50 recorded as > 1000 nM

Looking up CN(c1ccc(OCc2ccc(C(=O)NO)cc2)cc1)c1ncnc2ccccc12 [II-16] , I found its IC50 recorded as > 1000 nM

* * *

- Experimental System: HDAC1 (Homo sapiens)
- Construct: purchased BPS Bioscience
- Sequence (Q13547 whole entry): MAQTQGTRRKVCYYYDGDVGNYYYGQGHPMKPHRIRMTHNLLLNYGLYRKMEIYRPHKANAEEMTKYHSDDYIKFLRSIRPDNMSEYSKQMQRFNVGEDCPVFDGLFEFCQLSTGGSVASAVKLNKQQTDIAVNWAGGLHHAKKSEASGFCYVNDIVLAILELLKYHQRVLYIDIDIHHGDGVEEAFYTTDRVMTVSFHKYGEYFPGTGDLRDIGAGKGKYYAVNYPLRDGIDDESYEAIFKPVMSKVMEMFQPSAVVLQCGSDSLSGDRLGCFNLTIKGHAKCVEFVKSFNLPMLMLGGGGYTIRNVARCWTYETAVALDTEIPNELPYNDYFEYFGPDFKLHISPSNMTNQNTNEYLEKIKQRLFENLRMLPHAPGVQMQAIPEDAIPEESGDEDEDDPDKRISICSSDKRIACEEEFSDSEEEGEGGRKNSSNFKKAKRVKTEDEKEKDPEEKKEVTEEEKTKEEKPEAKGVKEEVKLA
- Method Notes: HDAC inhibitory activity, fluorescence-coupled acetylated peptide substrate assay (Lys-Ac-AMC)
- Assay type: biochemical
- Assay Context: Table 3
pIC50: −log10 of the molar value.
Measured Parameter: pIC50

>>> reported("Cc1nc(N(C)c2ccc(OCCCCCC(=O)NO)cc2)c2ccccc2n1")
6.57
>>> reported("Cc1nc(N(C)c2ccc(OCCCC(=O)NO)cc2)c2ccccc2n1")
7.08
>>> reported("CN(c1ccc(Oc2ccc(C(=O)NO)cn2)cc1)c1ncnc2ccccc12")
6.36
>>> reported("CN(c1ccc(OCc2ccc(C(=O)NO)cc2)cc1)c1ncnc2ccccc12")
6.41

* * *

- Experimental System: HDAC6 (Homo sapiens, UniProt Q9UBN7)
- Method Notes: HDAC inhibitory activity, fluorescence-coupled acetylated peptide substrate assay
- Type: biochemical
- Assay Context: Table 2
Measured Parameter: IC50

>>> reported("Cc1nc(N(C)c2ccc(Oc3ccc(C(=O)NO)cn3)cc2)c2ccccc2n1")
"< 10 nM"
>>> reported("Cc1nc(N(C)c2ccc(OCCCCCC(=O)NO)cc2)c2ccccc2n1")
"10 to 100 nM"
>>> reported("Cc1nc(N(C)c2ccc(Oc3ccc(C(=O)NO)cc3)cc2)c2ccccc2n1")
"10 to 100 nM"
>>> reported("CCCCCN(c1ccc(OC)c(OCCCC(=O)NO)c1)c1nc(C)nc2ccccc12")
"10 to 100 nM"
>>> reported("CN(c1ccc(Oc2ccc(C(=O)NO)cn2)cc1)c1ncnc2ccccc12")
"10 to 100 nM"
>>> reported("CN(c1ccc(OCCCC(=O)NO)cc1)c1ncnc2ccccc12")
"10 to 100 nM"
>>> reported("Cc1nc(Nc2ccc(OCCC(=O)NO)cc2)c2ccccc2n1")
"100 to 1000 nM"
>>> reported("CN(c1ccc(OCCCCC(=O)NO)cc1)c1ncnc2ccccc12")
"10 to 100 nM"

Looking up Cc1nc(N(C)c2cccc(OCC(=O)NO)c2)c2ccccc2n1 , I found its IC50 recorded as 10 to 100 nM

Looking up COc1ccc(N(C)c2nc(C)nc3ccccc23)cc1OCC(=O)NO , I found its IC50 recorded as > 1000 nM

Looking up Cc1nc(N(C)c2ccc(OCCCCC(=O)NO)cc2)c2ccccc2n1 , I found its IC50 recorded as 10 to 100 nM

* * *

- Experimental System: HDAC6 (Homo sapiens)
- Sequence (Q9UBN7 1-1215): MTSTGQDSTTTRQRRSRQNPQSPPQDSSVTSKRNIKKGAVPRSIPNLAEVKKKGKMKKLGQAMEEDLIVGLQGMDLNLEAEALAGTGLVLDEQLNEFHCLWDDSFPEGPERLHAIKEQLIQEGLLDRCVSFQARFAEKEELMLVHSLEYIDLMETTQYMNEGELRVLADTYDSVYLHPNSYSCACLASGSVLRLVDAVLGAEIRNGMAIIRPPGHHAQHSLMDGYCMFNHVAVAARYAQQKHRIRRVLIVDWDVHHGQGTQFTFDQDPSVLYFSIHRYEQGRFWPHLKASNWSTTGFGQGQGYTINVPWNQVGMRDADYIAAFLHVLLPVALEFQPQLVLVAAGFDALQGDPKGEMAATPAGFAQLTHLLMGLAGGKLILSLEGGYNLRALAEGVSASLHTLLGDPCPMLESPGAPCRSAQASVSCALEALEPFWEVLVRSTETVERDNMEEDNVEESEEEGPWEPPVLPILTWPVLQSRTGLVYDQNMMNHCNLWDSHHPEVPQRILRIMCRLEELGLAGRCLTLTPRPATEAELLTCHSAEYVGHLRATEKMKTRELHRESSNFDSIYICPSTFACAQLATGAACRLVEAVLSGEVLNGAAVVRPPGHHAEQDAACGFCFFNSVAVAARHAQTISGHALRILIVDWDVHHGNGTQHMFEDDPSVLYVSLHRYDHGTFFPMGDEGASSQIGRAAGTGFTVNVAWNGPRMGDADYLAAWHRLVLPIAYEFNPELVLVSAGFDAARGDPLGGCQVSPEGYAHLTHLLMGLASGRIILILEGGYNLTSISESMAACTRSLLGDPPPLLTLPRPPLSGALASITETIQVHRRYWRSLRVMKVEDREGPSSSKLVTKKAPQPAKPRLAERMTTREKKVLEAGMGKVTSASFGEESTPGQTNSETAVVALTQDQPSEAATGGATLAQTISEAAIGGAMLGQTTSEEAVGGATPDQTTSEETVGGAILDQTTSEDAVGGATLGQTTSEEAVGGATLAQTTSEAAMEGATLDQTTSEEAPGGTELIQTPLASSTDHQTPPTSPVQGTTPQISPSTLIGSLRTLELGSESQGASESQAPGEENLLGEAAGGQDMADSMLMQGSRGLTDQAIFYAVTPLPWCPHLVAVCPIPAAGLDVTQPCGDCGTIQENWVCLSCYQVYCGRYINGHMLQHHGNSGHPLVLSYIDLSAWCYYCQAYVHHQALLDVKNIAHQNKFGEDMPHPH
- Method Notes: HDAC inhibitory activity, fluorescence-coupled acetylated peptide substrate assay
- Assay type: biochemical
- Assay Context: ratio of IC50 HDAC1 to HDAC6
Measured Parameter: Selection Ratio HDAC1/6

Worked set:
>>> reported("CN(c1ccc(OCCCCC(=O)NO)cc1)c1ncnc2ccccc12 [II-14]")
4.1
>>> reported("CN(c1ccc(OCCCC(=O)NO)cc1)c1ncnc2ccccc12 [II-13]")
2.2
>>> reported("Cc1nc(N(C)c2ccc(OCCCC(=O)NO)cc2)c2ccccc2n1 [II-2]")
0.4
>>> reported("Cc1nc(N(C)c2ccc(Oc3ccc(C(=O)NO)cc3)cc2)c2ccccc2n1 [II-6]")
7.7

(P) Cc1nc(N(C)c2ccc(OCCCCC(=O)NO)cc2)c2ccccc2n1 [II-3]
(Q) CN(c1ccc(Oc2ccc(C(=O)NO)cn2)cc1)c1ncnc2ccccc12 [II-18]
From the recorded data, which exceeds the other in Selection Ratio HDAC1/6: P or Q ? In your reply, give the label of the chosen option.
Q

Hey, just so you know, these numbers are from patent US10532053B2.
